B1: TPR t1 (parent)
chain: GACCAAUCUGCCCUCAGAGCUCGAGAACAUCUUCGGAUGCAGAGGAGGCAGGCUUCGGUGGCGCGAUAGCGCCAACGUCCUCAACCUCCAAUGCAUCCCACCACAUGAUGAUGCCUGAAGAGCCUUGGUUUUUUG

Variants of: B1
Protocol details: polymerase ribozyme fitness, log enrichment relative to wild type (log ratio); higher = more active; in vitro selection for triplet polymerase activity
Item-by-item account of polymerase ribozyme fitness (log ratio)

Examples with answers:
- Mutant: "G51A C62A U116G C124A"
  polymerase ribozyme fitness (log ratio): -5.64
- Mutant: "A16G G52A U116C"
  polymerase ribozyme fitness (log ratio): 0.826
- Mutant: "G45U G120A"
  polymerase ribozyme fitness (log ratio): -0.795
- Mutant: "C4A C56A C70A C72U U125G"
  polymerase ribozyme fitness (log ratio): -4.17
- Mutant: "C11G C56U U87C"
  polymerase ribozyme fitness (log ratio): 0.175
- Mutant: "G39A G44A C62G U78C"
  polymerase ribozyme fitness (log ratio): -6.69

[Q] State its polymerase ribozyme fitness (log ratio) for this variant: C12G C123U
[A] 1.34

[Q] State its polymerase ribozyme fitness (log ratio) for this variant: C73A C88A C89A U112G A119C
[A] -2.76

[Q] State its polymerase ribozyme fitness (log ratio) for this variant: C11G C12A C64U U96C A108G
[A] -2.32

[Q] State its polymerase ribozyme fitness (log ratio) for this variant: C88G G107U A111C A121U U125A
[A] -3.56

[Q] State its polymerase ribozyme fitness (log ratio) for this variant: U9C G57U
[A] 0.0681

[Q] State its polymerase ribozyme fitness (log ratio) for this variant: C12U C31U G77U U87C C123U
[A] -3.57

[Q] State its polymerase ribozyme fitness (log ratio) for this variant: A6C C53G G57A C73A C79G G113C
[A] -4.89

[Q] State its polymerase ribozyme fitness (log ratio) for this variant: C70U C97U U106A G127U
[A] -1.69

[Q] State its polymerase ribozyme fitness (log ratio) for this variant: C49A G77C C88A
[A] -1.31
